system: E. coli GC2270 (tet(M))
quantity-kind: MIC

compound | target-or-system | quantity-kind | reported-measurement
CCCCCCOc1ccc(-c2nc3cc(N(C)C)c4c(c3o2)C(=O)C2=C(O)[C@]3(O)C(=O)C(C(N)=O)=C(O)[C@@H](N(C)C)[C@@H]3C[C@@H]2C4)cc1 [Example 32] | E. coli GC2270 (tet(M)) | MIC | > 64 µg/mL
CN(C)c1cc2nc(/C=C/c3ccc(F)cc3)oc2c2c1C[C@H]1C[C@H]3[C@H](N(C)C)C(O)=C(C(N)=O)C(=O)[C@@]3(O)C(O)=C1C2=O [Example 29] | E. coli GC2270 (tet(M)) | MIC | > 64 µg/mL
CN(C)c1cc2nc(/C=C/c3ccccc3)oc2c2c1C[C@H]1C[C@H]3[C@H](N(C)C)C(O)=C(C(N)=O)C(=O)[C@@]3(O)C(O)=C1C2=O [Example 25] | E. coli GC2270 (tet(M)) | MIC | > 64 µg/mL
COc1cccc(/C=C/c2nc3cc(N(C)C)c4c(c3o2)C(=O)C2=C(O)[C@]3(O)C(=O)C(C(N)=O)=C(O)[C@@H](N(C)C)[C@@H]3C[C@@H]2C4)c1 [Example 27] | E. coli GC2270 (tet(M)) | MIC | > 64 µg/mL
CN(C)c1ccc(-c2nc3ccc4cc5c(c(O)c4c3o2)C(=O)[C@]2(O)C(=O)C(C(N)=O)=C(O)[C@@H](N(C)C)[C@@H]2C5)cc1 [Example 3] | E. coli GC2270 (tet(M)) | MIC | > 64 µg/mL

----------
Entries below carry reported MIC on E. coli GC2203 (ATCC Control).
quantity-kind: MIC

compound | reported-measurement
CN(C)c1cc2nc(-c3cccnc3)oc2c2c1C[C@H]1C[C@H]3[C@H](N(C)C)C(O)=C(C(N)=O)C(=O)[C@@]3(O)C(O)=C1C2=O [Example 34] | > 64 mg/L
CN(C)c1cc2nc(-c3cc4ccccc4o3)oc2c2c1C[C@H]1C[C@H]3[C@H](N(C)C)C(O)=C(C(N)=O)C(=O)[C@@]3(O)C(O)=C1C2=O [Example 18] | > 64 mg/L
CN(C)c1cc2nc(-c3nccs3)oc2c2c1C[C@H]1C[C@H]3[C@H](N(C)C)C(O)=C(C(N)=O)C(=O)[C@@]3(O)C(O)=C1C2=O [Example 24] | > 64 mg/L
CN(C)Cc1nc2cc(N(C)C)c3c(c2o1)C(=O)C1=C(O)[C@]2(O)C(=O)C(C(N)=O)=C(O)[C@@H](N(C)C)[C@@H]2C[C@@H]1C3 [Example 36] | 2 mg/L
CN(C)c1cc2nc(/C=C/c3ccc(F)cc3)oc2c2c1C[C@H]1C[C@H]3[C@H](N(C)C)C(O)=C(C(N)=O)C(=O)[C@@]3(O)C(O)=C1C2=O [Example 29] | > 64 mg/L
CN(C)c1cc2nc(C(C)(C)C)oc2c2c1C[C@H]1C[C@H]3[C@H](N(C)C)C(O)=C(C(N)=O)C(=O)[C@@]3(O)C(O)=C1C2=O [Example 4] | > 64 mg/L
CN(C)c1cc2nc(-c3ccc(O)cc3O)oc2c2c1C[C@H]1C[C@H]3[C@H](N(C)C)C(O)=C(C(N)=O)C(=O)[C@@]3(O)C(O)=C1C2=O [Example 12] | 32 mg/L
CC(=O)OCc1ccc(-c2nc3cc(N(C)C)c4c(c3o2)C(=O)C2=C(O)[C@]3(O)C(=O)C(C(N)=O)=C(O)[C@@H](N(C)C)[C@@H]3C[C@@H]2C4)o1 [Example 21] | > 64 mg/L
COc1cccc(/C=C/c2nc3cc(N(C)C)c4c(c3o2)C(=O)C2=C(O)[C@]3(O)C(=O)C(C(N)=O)=C(O)[C@@H](N(C)C)[C@@H]3C[C@@H]2C4)c1 [Example 27] | > 64 mg/L
CN(C)c1cc2nc(/C=C/c3ccccc3)oc2c2c1C[C@H]1C[C@H]3[C@H](N(C)C)C(O)=C(C(N)=O)C(=O)[C@@]3(O)C(O)=C1C2=O [Example 25] | > 64 mg/L
CCCCNCc1nc2cc(N(C)C)c3c(c2o1)C(=O)C1=C(O)[C@]2(O)C(=O)C(C(N)=O)=C(O)[C@@H](N(C)C)[C@@H]2C[C@@H]1C3 [Example 39] | 32 mg/L
